Listed here: items and their measured combination Emax.
System: OAW-28 (Ovarian Carcinoma)
experimentDescription: combination Emax (second highest fraction inhibited in the dose matrix, 72 h); higher = more inhibition; extreme values may be limits of the assay

# compound, combination Emax
records = [
    ("CS(=O)(=O)CCNCc1ccc(-c2ccc3ncnc(Nc4ccc(OCc5cccc(F)c5)c(Cl)c4)c3c2)o1 [Lapatinib] + C[C@@H](Oc1cc(-c2cnn(C3CCNCC3)c2)cnc1N)c1c(Cl)ccc(F)c1Cl [Crizotinib] (first compound max 10 µM, 7x7, partner max 10 µM)", 0.75),
    ("COc1cccc(OCCCN)c1-c1cc(Nc2cnc(C#N)cn2)n[nH]1 [Prexasertib] + CN(C)CCCOc1ccc(-c2ccc3ncc4c(c3c2)n(C2CCOCC2)c(=O)n4C)cn1 [AZD0156] (first compound max 1 µM, 7x7, partner max 1 µM)", 0.563),
    ("Cn1cnc2c(F)c(Nc3ccc(Br)cc3Cl)c(C(=O)NOCCO)cc21 [Selumetinib] + CC(C)n1c(=O)n(C)c2cnc3cc(F)c(-c4ccc(OCCCN5CCCCC5)nc4)cc3c21 [AZD1390] (first compound max 10 µM, 7x7, partner max 0.3 µM)", 0.332),
    ("COc1cccc(OCCCN)c1-c1cc(Nc2cnc(C#N)cn2)n[nH]1 [Prexasertib] + CCc1c2c(nc3ccc(O)cc13)-c1cc3c(c(=O)n1C2)COC(=O)[C@]3(O)CC [SN-38] (first compound max 1 µM, 7x7, partner max 0.3 µM)", 1),
    ("Cc1c2c(nn1C)CSCc1cc(n(C)n1)CSc1cc(c3ccccc3c1)OCCCc1c(C(=O)O)n(C)c3c-2c(Cl)ccc13 [AZD5991] + C=CCn1c(=O)c2cnc(Nc3ccc(N4CCN(C)CC4)cc3)nc2n1-c1cccc(C(C)(C)O)n1 [AZD1775] (first compound max 1 µM, partner max 1 µM)", 0.347),
    ("C[C@@H](c1ccc2nccn2c1)n1nnc2ncc(-c3cnn(C)c3)nc21 [Savolitinib] + CC1(C)CCC(CN2CCN(c3ccc(C(=O)NS(=O)(=O)c4ccc(NCC5CCOCC5)c([N+](=O)[O-])c4)c(Oc4cnc5[nH]ccc5c4)c3)CC2)=C(c2ccc(Cl)cc2)C1 [Venetoclax] (first compound max 1 µM, 7x7, partner max 1 µM)", 0.163),
    ("CS(=O)(=O)CCNCc1ccc(-c2ccc3ncnc(Nc4ccc(OCc5cccc(F)c5)c(Cl)c4)c3c2)o1 [Lapatinib] + NC1(c2ccc(-c3nc4ccn5c(=O)[nH]nc5c4cc3-c3ccccc3)cc2)CCC1 [MK-2206] (first compound max 10 µM, 7x7, partner max 10 µM)", 0.898),
]

* * *

Reported values of combination Emax for individual entries
Test system: IST-MEL1 (Melanoma)
experimentDescription: combination Emax (second highest fraction inhibited in the dose matrix, 72 h); higher = more inhibition; extreme values may be limits of the assay

# compound, combination Emax
records = [
    ("O=C(c1cc(Cc2n[nH]c(=O)c3ccccc23)ccc1F)N1CCN(C(=O)C2CC2)CC1 [Olaparib] + Cc1c2c(nn1C)CSCc1cc(n(C)n1)CSc1cc(c3ccccc3c1)OCCCc1c(C(=O)O)n(C)c3c-2c(Cl)ccc13 [AZD5991] (first compound max 10 µM, 7x7, partner max 1 µM)", 0.101),
    ("Cc1cc2ncnn2cc1Nc1ncc2c(n1)n(C1CCOCC1)c(=O)n2C [AZD7648] + O=C(c1cc(Cc2n[nH]c(=O)c3ccccc23)ccc1F)N1CCN(C(=O)C2CC2)CC1 [Olaparib] (first compound max 10 µM, 7x7, partner max 10 µM)", 0.24),
    ("C[C@@H]1COCCN1c1cc(C2([S@](C)(=N)=O)CC2)nc(-c2ccnc3[nH]ccc23)n1 [AZD6738] + C1CC(C1)(C(=O)[O-])C(=O)[O-].N.N.[Pt+2] [Carboplatin] (first compound max 10 µM, 7x7, partner max 10 µM)", 0.679),
    ("CCN(CCO)CCCOc1ccc2c(Nc3cc(CC(=O)Nc4cccc(F)c4)[nH]n3)ncnc2c1 [AZD2811] + O=C(c1cc(Cc2n[nH]c(=O)c3ccccc23)ccc1F)N1CCN(C(=O)C2CC2)CC1 [Olaparib] (first compound max 1 µM, 7x7, partner max 10 µM)", 0.259),
]
